Target: G-protein coupled receptor 55 (Homo sapiens, UniProt Q9Y2T6)
Sequence (Q9Y2T6 whole entry): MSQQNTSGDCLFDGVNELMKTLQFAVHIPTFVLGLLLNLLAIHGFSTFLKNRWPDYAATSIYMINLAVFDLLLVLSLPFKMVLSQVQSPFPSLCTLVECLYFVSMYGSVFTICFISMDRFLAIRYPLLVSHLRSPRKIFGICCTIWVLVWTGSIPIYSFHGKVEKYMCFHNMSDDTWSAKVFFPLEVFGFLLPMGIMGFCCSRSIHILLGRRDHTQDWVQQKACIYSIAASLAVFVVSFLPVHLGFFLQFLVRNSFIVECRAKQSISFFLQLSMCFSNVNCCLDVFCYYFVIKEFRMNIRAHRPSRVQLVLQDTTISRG
Assay: selective activators of receptor GPR55 – imaging, U2OS cells, beta-arrestin-GFP redistribution, primary screen (AID 1961)
Type: functional
Calls of active or inactive are those of the source.
Entry note: the call must match one of 1 = active, -1 = inactive

// return assay outcome for `CCOC(=O)c1c(-n2c(C)cc(C=C3C(=O)NC(=S)NC3=O)c2C)sc2c1CCCC2`
-1

Next compound: `Cc1ccc(/C=C2\SC(=S)N(CCCC(=O)Nc3cccc(C(=O)O)c3)C2=O)cc1`
1

Now try `COc1ccc(S(=O)(=O)N2CCOCC2)cc1NC(=O)c1cc2c(s1)CCCC2` .
1

Param item: COc1ccccc1N1CCN(C(c2cccs2)c2nnnn2C2CCCC2)CC1 (stereo not given)
1

Check `O=C(NCc1ccco1)c1cc2nc(-c3ccc4c(c3)OCO4)cc(C(F)(F)F)n2n1` too.
-1

====

Molecular target: Leucine aminopeptidase (Plasmodium falciparum 3D7, UniProt Q8IL11)
Sequence (Q8IL11 whole entry): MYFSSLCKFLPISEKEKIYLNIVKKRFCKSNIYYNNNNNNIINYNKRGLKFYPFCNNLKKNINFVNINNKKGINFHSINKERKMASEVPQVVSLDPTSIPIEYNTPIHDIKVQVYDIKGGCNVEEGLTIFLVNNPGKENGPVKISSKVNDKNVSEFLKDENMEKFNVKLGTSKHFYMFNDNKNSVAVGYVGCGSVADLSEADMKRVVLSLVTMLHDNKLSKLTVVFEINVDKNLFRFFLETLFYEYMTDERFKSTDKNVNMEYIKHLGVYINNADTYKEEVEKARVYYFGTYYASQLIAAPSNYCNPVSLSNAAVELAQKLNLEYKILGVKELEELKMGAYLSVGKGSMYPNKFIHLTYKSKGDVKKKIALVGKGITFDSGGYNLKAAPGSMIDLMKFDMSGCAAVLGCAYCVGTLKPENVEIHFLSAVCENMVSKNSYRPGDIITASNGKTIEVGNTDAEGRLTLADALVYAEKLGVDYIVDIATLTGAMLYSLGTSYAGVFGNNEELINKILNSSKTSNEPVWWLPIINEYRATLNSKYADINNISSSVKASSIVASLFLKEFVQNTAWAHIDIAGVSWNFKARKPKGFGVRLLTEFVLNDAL
Test: P. falciparum M17LAP inhibitors, primary screen, biochemical, fluorogenic H-Leu-NHMec substrate, 1536-well (AID 1619)
Assay type: functional
Active and inactive are the calls of the source.
parameter measured: IC50

Which IC50 is reported for this compound? `CCOC(=O)c1c(C)oc2ccc(NS(=O)(=O)c3ccc(C(=O)O)cc3)cc12`
43.9 µM (active)

And then CCc1nnc(NC(=O)C(C)Sc2ccccc2)s1 (stereo not drawn) , what is it?
3.57 µM (active)

Repeat for the following compound: `COc1ccc(Nc2nnc(SCC(=O)/C=C3/N(C)c4ccccc4C3(C)C)s2)cc1`
21.1 µM (active)

# repeat for O=C1C(C2=NC(C(=O)O)C3C(=O)N(c4ccccc4)C(=O)C23)=C(O)c2ccccc21 (stereo not drawn)
68 µM (active)

Please do the same for CCOC(=O)c1cccc(NC(=O)CN2C(=O)C3C4C=CC(C4)C3C2=O)c1 (stereo not drawn) as well.
14.2 µM (active)

Entry `Cn1c(O)cc(=O)nc1SCC(=O)Nc1cccc2ccccc12` please
7.59 µM (active)

Please do the same for `O=C(Nc1cccc(C(=O)O)c1)/C(=C\c1ccc2c(c1)OCO2)NC(=O)c1ccc(Br)o1` as well.
65 µM (active)

Please answer likewise for `Cc1cc(N2CCCCC2)ccc1C=C1C(=O)N(C)C(=S)N(C)C1=O`
40.9 µM (active)

====

Dear all, this message contains AC50 results, target or system UniProtKB P11712.
Sequence (P11712 whole entry): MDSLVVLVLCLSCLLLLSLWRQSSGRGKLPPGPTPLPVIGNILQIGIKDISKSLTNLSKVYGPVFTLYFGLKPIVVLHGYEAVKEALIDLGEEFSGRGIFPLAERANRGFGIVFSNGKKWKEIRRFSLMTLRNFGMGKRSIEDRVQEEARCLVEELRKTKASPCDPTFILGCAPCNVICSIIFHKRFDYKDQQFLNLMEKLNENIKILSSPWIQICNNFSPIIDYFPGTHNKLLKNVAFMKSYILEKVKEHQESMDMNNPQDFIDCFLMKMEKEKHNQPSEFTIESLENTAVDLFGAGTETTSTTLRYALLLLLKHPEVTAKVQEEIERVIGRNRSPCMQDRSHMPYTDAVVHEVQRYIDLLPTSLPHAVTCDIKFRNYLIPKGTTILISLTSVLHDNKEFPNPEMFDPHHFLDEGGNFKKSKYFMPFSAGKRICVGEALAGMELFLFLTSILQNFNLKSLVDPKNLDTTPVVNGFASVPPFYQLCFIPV

I have this compound here, COc1ccc(CCNC(=O)CCN2C(=O)C(C)Oc3ccc(C)cc32)cc1OC (stereo unspecified) , and I need its recorded AC50.
5.62 µM (inconclusive)

And `COc1ccc2cc3cc(C(=O)Nc4ccc5c(c4)OCO5)oc3nc2c1` ?
5.01 µM (inconclusive)

Same for `COCCn1c(=O)c(CCc2ccccc2)nc2cnc(N(C)C)nc21`
25.1 µM (inconclusive)

For `O=C(c1cc(O)nc2ccc(Br)cc12)N1CCC2(CC1)OCCO2` then?
39.8 µM (inconclusive)

Field entry: COCCn1c(C)cc2c(c1=O)C(c1ccccc1F)C(C#N)=C(N)O2 (stereo unspecified)
17.8 µM (inconclusive)

Likewise for `CCc1c(C)nc2ccc(Br)cc2c1Cl` ?
11.2 µM (inconclusive)

Follow-up item: `CCc1ccccc1NC(=O)c1ccc(F)c(S(=O)(=O)N2CCC(C(N)=O)CC2)c1`
25.1 µM (inconclusive)

Entry to check: O=C1CSC(c2ccccn2)N1c1ccc(Cl)c(Cl)c1 (stereo unspecified)
20 µM (inconclusive)

Also need `CN(CCOc1ccc(C[C@H](Nc2ccccc2C(=O)c2ccccc2)C(=O)O)cc1)c1ccccn1` , thanks.
31.6 µM (inconclusive)

Moving on to the next compound: `O=C(O)C1CCN(c2c([N+](=O)[O-])cc(C(F)(F)F)cc2[N+](=O)[O-])CC1`
35.5 µM (inconclusive)

`N#CCCn1c(=O)c(-c2cccc(C#N)c2)nc2cnc(Oc3ccccc3)nc21` , same question.
39.8 µM (inconclusive)
